# credit: patent US20250340659A1

Molecular target: T1, canine OX40L, full length membrane form, expressed on HEK293 cells (canine)
T1 chain: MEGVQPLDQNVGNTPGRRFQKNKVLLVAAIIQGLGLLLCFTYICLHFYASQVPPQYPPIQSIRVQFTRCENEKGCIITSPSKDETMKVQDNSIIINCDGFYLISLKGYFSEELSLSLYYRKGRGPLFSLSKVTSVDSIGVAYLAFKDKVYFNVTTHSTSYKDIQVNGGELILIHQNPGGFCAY
Assay: cell-based or functional assay
Readout Name: % Signal Inhibition Average (%)
Value expressed in %; do not type the unit.

Some solved entries appear below for comparison.
PMX036 (antibody, V domains shown, also called PMX36) VH: EVQLVESGGDLVKPGGSLRLSCVASGFTFSSYHMSWVRQAPGKGLQWVAYITSGGRTTSYADAVKGRFTISRDNAKNTLYLQMNSLRAEDTAVYYCASDLVLVLGGADYWGQGTLVTVSS VL: SYELTQPPSVNVTLRETAHITCGGDSIGRKYVQWIQQNPGQAPVVIIYKDTNRPTGIPERFSGANSGNTATLTISGALAEDEADYYCQVGDSGTKAVFGGGTHLTVL ... 77.4
PMX025 (antibody, V domains shown, also called PMX25) VH: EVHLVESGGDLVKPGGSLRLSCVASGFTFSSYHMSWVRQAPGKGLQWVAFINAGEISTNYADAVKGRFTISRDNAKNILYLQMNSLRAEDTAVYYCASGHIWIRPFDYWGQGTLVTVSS VL: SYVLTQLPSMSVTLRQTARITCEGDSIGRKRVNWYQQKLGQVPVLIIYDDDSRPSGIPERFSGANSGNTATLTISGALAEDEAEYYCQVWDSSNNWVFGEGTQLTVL ... 72.6
PMX027 (antibody, V domains shown, also called PMX27) VH: EVHLVESGGDLVKPGGSLRLSCVASGFTFSTYHMSWVRQAPGKGLQWVAFINAGEISTNYADAVKGRFTISRDNAKNIFYLQMNSLRAEDTAVYYCATGHIWIRPFDYWGQGTLVTVSS VL: SYVLTQLPSMSVTLRQTARITCEGNSIGRKRVNWYQQKLGQVPVLIIYDDDSRPSGIPERFSGANSGNTATLTISGALAEDEAEYYCQVWDSSNNWVFGEGTQLTVL ... 80.4
PMX082 (antibody, V domains shown, also called PMX82) VH: EVQLVESGGDLVKPGGSLRLSCVASGFTFSSHHMTWVRQAPGKGLQWVAYIVSGGTNTNYADAVKGRFTISRDNAKNTLYLQMNSLRAEDTAVYYCASDLVLAVGAPFYWGQGTLVTVSS VL: SYELTQPPSVNVTLRETAHITCGGDSIGRKYVQWIQQNPGQAPVVIIYKDINRPTGIPERFSGANSGNTATLTISGALAEDEADYYCQVGDSGTKAVFGEGTQLTVL ... 72.3

Kindly review the next binder as well.
Could you share which % Signal Inhibition Average value was measured for PMX099 (antibody, V domains shown) VH: EVQLVESGGDLVRPGGSLRLSCVASGFTFSSYHMNWVRQAPGKGLQWVAFINSGGSSTTYADVVRGRFTISRDYAKNTLYLQMNSLRAEDTAVYYCASGSIWTHFDYWGQGTLVTVSS VL: SFVLTQLPSVSVTLRQTARITCGGDSIGTKSVYWYQQKLGQAPVLIIYRDSNRPTGIPERFSGASSGNTATLTISGALAEDEADYYCQVWDSSNKAMFGGGTHLTVL ?
24.8
